biological target: T1, mesothelin (soluble, recombinant) (UniProt Q13421 296-580, limits assumed); assay: Octet BLI, bsAb captured on AHC biosensors, mesothelin 0-200 nM, 1:1 model
T1 construct: also called MSLN; soluble MSLN
PROPERTY: koff (s⁻¹)
One number for each entry, in s⁻¹.

Entry MSLN-31-[L]-scFv^CD3 bsAb (bispecific antibody, V domains shown, IgG-[L]-scFv format; also called MSLN-31 bsAb; not shown: IgG heavy constant region (N297G, K322A), light constant region and the huOKT3-scFv with its 3xG4S linker; copies: 2 + 2) VH: QVQLQESGPGLVKPSETLSLTCTVSGGSVSSFTDTWSWIRQPPGKGLEWIGYIYYSGSTNYNPSLKSRVTISVDTSKNQFSLKLSSVTAADTAVYYCARDFVLSGFDIWGQGTMVTVSS VL: DIQMTQSPSSLSASVGDRVTITCRASQSISSYLNWYQQKPGKAPKLLIYAASSLQSGVPSRFSGSGSGTDFTLTISSLQPEDFATYYCQQPYDASYTFGGGTKVEIK : reported koff = ?
3.03e-07

Where do the numbers come from? From patent US20260209319A1.
